The values you see were collected from PubChem BioAssay (NCI).

# System: OVCAR-8 ovarian
# Protocol Description: NCI-60 one-dose screen, 48 h (100 = growth as untreated, 0 = no growth, -100 = all killed)
# Condition: 10 µM unless noted
Compounds without any hit were thinned out: in the full panel of roughly 83,000, 20% have a hit.
Param label: returns true (1) when growth < 30%, returns false (0) otherwise, including exact equality.

• COC(=O)[C@]12CC[C@@H](C)[C@H](C)[C@@H]1C1=CC[C@@H]3[C@@]4(C)C(C=O)=C[C@@](C)(COC(C)=O)C4=CC[C@@]3(C)[C@]1(C)CC2 = true (1)
• FC(F)(F)c1cc(Nc2ccc3cc(OCCCN4CCOCC4)ccc3n2)ccc1Cl = false (0)
• N[C@@H](CCCCNCC(=O)O)C(=O)O = false (0)
• CCc1c2c(nc3ccc(OC(=O)NCc4ccc(B5OC(C)(C)C(C)(C)O5)cc4)cc13)-c1cc3c(c(=O)n1C2)COC(=O)[C@]3(O)CC = true (1)
• COc1ccc(NC(=O)CSc2nnc(-c3cc(-c4ccccc4)nc4ccccc34)n2-c2ccccc2)cc1 = false (0)

Prompt: Dear reviewer, please state whether CCC1(C2CCCC2)NC(=O)NC1=O (configuration not stated) has growth strictly beneath 30%.
Completion: false (0)

Prompt: Dear reviewer, please state whether O=C(CSc1nnc(-c2ccc(NC(=O)c3cccnc3)cc2)o1)N[C@@H](Cc1ccc(O)cc1)C(=O)O has growth strictly beneath 30%.
Completion: false (0)

Prompt: Dear reviewer, please state whether Cc1ccc(Cc2cnc(NC(=O)c3ccc4noc(-c5ccccc5)c4c3)s2)cc1 has growth strictly beneath 30%.
Completion: false (0)

Prompt: Dear reviewer, please state whether Cn1c(-c2c(N)n(Cc3cccnc3)c3nc(C#N)c(C#N)nc23)nc2ccccc21 has growth strictly beneath 30%.
Completion: false (0)

Prompt: Dear reviewer, please state whether COC(=O)[C@]12CC[C@@H](C)[C@H](C)[C@@H]1C1=CC[C@@H]3[C@@]4(C)C(C=O)=C[C@@](C)(COS(C)(=O)=O)C4[C@H](O)C[C@@]3(C)[C@]1(C)CC2 (some centres not stated) has growth strictly beneath 30%.
Completion: true (1)

Prompt: Dear reviewer, please state whether COc1ccc(/C=N\NC(=O)c2cc(-c3ccc(Br)cc3)n(-c3ccc(S(N)(=O)=O)cc3)n2)cc1 has growth strictly beneath 30%.
Completion: false (0)

Prompt: Dear reviewer, please state whether CC1=NOC(=O)/C1=C\c1ccc(O)cc1 has growth strictly beneath 30%.
Completion: false (0)

Prompt: Dear reviewer, please state whether CC(=O)N1N=C(c2ccc(Nc3nc(Nc4ccc(F)cc4)nc(Nc4ccc(F)cc4)n3)cc2)CC1c1cccc([N+](=O)[O-])c1 (configuration not stated) has growth strictly beneath 30%.
Completion: false (0)

Prompt: Dear reviewer, please state whether O=C(Nc1ccccc1-c1nc2ccccc2c(=O)[nH]1)c1cc2ccccc2[nH]1 has growth strictly beneath 30%.
Completion: false (0)

Prompt: Dear reviewer, please state whether Cc1ccc(C(=NN=C(N)N)c2ccc(C)cc2)cc1 has growth strictly beneath 30%.
Completion: true (1)

Prompt: Dear reviewer, please state whether Cc1c(Cl)cc(-n2c(=O)c3ccccc3c3ccccc3c2=O)cc1Cl has growth strictly beneath 30%.
Completion: false (0)

Prompt: Dear reviewer, please state whether Cc1cccc(NC(=O)CSc2nc3ccccc3[nH]2)c1 has growth strictly beneath 30%.
Completion: false (0)
